assayTarget: monomeric streptavidin variant mSA2
assayName: calculated from [P]T of the mSA2 binding curve fit and film thickness
Parameters: unit not given here
Parameter Calculated Density (density of binding sites within a cross-sectional area of the film): see the listing below.
Answer field: number only, no words.

Would you please look over these solved cases?
[[record]]
binder = "2xSP25k thin film (2x rcSso7d.SA-PNIPAM conjugate, 25 kDa PNIPAM) (designed binder, maleimide end-functionalized PNIPAM (25 kDa) on the N-terminal Cys; film lightly crosslinked with glutaraldehyde, Two rcSso7d.SA repeats joined by a (G4S)2 linker in one chain) MGSSHHHHHHSSGLVPRGSHMCATVKFTYQGEEKQVDISKIKIVARDGQYIDFKYDEGGGAYGYGWVSEKDAPKELLQMLEKQGGGGSGGGGSMATVKFTYQGEEKQVDISKIKIVARDGQYIDFKYDEGGGAYGYGWVSEKDAPKELLQMLEKQGG"
quantitativereadout = 43

[[record]]
binder = "3xSP25k thin film (3x rcSso7d.SA-PNIPAM conjugate, PNIPAM Mn 24.9 kDa) (designed binder, maleimide end-functionalized PNIPAM (Mn 24.9 kDa) on the N-terminal Cys; film lightly crosslinked with glutaraldehyde, Three rcSso7d.SA repeats joined by (G4S)2 linkers in one chain; also called conjugate of the trimer) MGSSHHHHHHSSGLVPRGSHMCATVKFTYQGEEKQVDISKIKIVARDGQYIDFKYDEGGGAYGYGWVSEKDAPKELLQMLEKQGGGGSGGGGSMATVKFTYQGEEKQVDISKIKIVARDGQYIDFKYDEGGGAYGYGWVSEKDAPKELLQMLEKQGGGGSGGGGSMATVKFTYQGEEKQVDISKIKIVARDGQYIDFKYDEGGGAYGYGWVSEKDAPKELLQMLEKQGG"
quantitativereadout = 59

[[record]]
binder = "1xSP25k thin film (1x rcSso7d.SA-PNIPAM conjugate, 25 kDa PNIPAM) (designed binder, maleimide end-functionalized PNIPAM (25 kDa) on the N-terminal Cys; film lightly crosslinked with glutaraldehyde) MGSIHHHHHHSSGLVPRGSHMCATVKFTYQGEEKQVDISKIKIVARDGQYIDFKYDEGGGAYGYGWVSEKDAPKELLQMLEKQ"
quantitativereadout = 48


Tell me Calculated Density (density of binding sites within a cross-sectional area of the film) reported for 4xSP25k thin film (4x rcSso7d.SA-PNIPAM conjugate, 25 kDa PNIPAM) (designed binder, maleimide end-functionalized PNIPAM (25 kDa) on the N-terminal Cys; film lightly crosslinked with glutaraldehyde, Four rcSso7d.SA repeats joined by (G4S)2 linkers in one chain) MGSSHHHHHHSSGLVPRGSHMCATVKFTYQGEEKQVDISKIKIVARDGQYIDFKYDEGGGAYGYGWVSEKDAPKELLQMLEKQGGGGSGGGGSMATVKFTYQGEEKQVDISKIKIVARDGQYIDFKYDEGGGAYGYGWVSEKDAPKELLQMLEKQGGGGSGGGGSMATVKFTYQGEEKQVDISKIKIVARDGQYIDFKYDEGGGAYGYGWVSEKDAPKELLQMLEKQGGGGSGGGGSMATVKFTYQGEEKQVDISKIKIVARDGQYIDFKYDESGGAYGYGWVSEKDAPKELLQMLEKQ
62

Data origin, for the record: patent US20200057058A1
